Just for reference, patent US20230158025A1 is where these values come from.

# ASSAY_TARGET: recombinant human GALK1 (Homo sapiens, UniProt P51570)
# Sequence (P51570 whole entry): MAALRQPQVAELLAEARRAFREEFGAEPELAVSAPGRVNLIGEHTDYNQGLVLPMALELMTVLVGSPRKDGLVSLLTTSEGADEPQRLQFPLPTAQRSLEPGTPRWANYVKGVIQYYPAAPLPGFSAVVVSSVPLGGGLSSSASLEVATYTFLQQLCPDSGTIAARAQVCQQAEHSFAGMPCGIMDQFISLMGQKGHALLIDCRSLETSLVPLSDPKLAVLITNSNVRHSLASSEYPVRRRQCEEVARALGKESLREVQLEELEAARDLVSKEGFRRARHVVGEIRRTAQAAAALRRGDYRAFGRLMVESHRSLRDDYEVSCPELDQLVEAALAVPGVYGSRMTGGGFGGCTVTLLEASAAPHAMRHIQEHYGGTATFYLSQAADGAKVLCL
# PROTOCOL_SUMMARY: hGALK1 biochemical activity assay (Kinase-Glo Plus, ATP depletion)
# CONDITION: recombinant human GALK1, Kinase-Glo Plus ATP depletion; read-out: hGALK
ATTRIBUTE_MEASURED: log10(IC50) (log10 of the value in µM)
// do not treat as linear: log10 of IC50, unit µM

>  <COMPOUND>
CC1=C(C(=O)NCc2cncn2C)C(c2ccccc2Cl)N=C(Nc2nc3ccccc3o2)N1 (centres unmarked)

>  <log10(IC50)>
0.24

$$$$
>  <COMPOUND>
CCn1cc(CNC(=O)C2=C(C)NC(Nc3nc4cccc(N)c4o3)=NC2c2ccc(Cl)cc2Cl)cn1 (centres unmarked)

>  <log10(IC50)>
-0.32

$$$$
>  <COMPOUND>
CC1=C(C(=O)Nc2nnc(-c3cccnc3)s2)C(c2ccccc2Cl)N=C(Nc2nc3cc(F)ccc3o2)N1 (centres unmarked)

>  <log10(IC50)>
0.74

$$$$

Input: Item CC1=C(C(=O)Nc2nnc(-c3cccnc3)s2)C(c2ccccc2Cl)N=C(Nc2nc3cc(N)ccc3o2)N1 (centres unmarked) has what recorded log10(IC50)?
Output: 1.04
